# experiment.summary: Relaxivity measurements at 3.0 T (whole body MRI scanner, 37 °C) in water and human plasma
# Type: physicochemical
# condition.set: water, normalized to Gd, average ± standard deviation
r1 water by entry:
property.name: r1 water (L/mmol/s)

compound: CCN(CC(=O)NCC(CNC(=O)CN(CC)C(=O)CN1CCN(CC(=O)[O-])CCN(CC(=O)[O-])CCN(CC(=O)[O-])CC1)(CNC(=O)CN(CC)C(=O)CN1CCN(CC(=O)[O-])CCN(CC(=O)[O-])CCN(CC(=O)[O-])CC1)CNC(=O)CN(CC)C(=O)CN1CCN(CC(=O)[O-])CCN(CC(=O)[O-])CCN(CC(=O)[O-])CC1)C(=O)CN1CCN(CC(=O)[O-])CCN(CC(=O)[O-])CCN(CC(=O)[O-])CC1.[Gd+3].[Gd+3].[Gd+3].[Gd+3] [Example 2]
numeric.value: 9.4

compound: CCOCCN(CC(=O)NCC(CNC(=O)CN(CCOCC)C(=O)CN1CCN(CC(=O)[O-])CCN(CC(=O)[O-])CCN(CC(=O)[O-])CC1)(CNC(=O)CN(CCOCC)C(=O)CN1CCN(CC(=O)[O-])CCN(CC(=O)[O-])CCN(CC(=O)[O-])CC1)CNC(=O)CN(CCOCC)C(=O)CN1CCN(CC(=O)[O-])CCN(CC(=O)[O-])CCN(CC(=O)[O-])CC1)C(=O)CN1CCN(CC(=O)[O-])CCN(CC(=O)[O-])CCN(CC(=O)[O-])CC1.[Gd+3].[Gd+3].[Gd+3].[Gd+3] [Example 4]
numeric.value: 10.1

compound: CN(CC(=O)NCC(CNC(=O)CN(C)C(=O)CN1CCN(CC(=O)[O-])CCN(CC(=O)[O-])CCN(CC(=O)[O-])CC1)(CNC(=O)CN(C)C(=O)CN1CCN(CC(=O)[O-])CCN(CC(=O)[O-])CCN(CC(=O)[O-])CC1)CNC(=O)CN(C)C(=O)CN1CCN(CC(=O)[O-])CCN(CC(=O)[O-])CCN(CC(=O)[O-])CC1)C(=O)CN1CCN(CC(=O)[O-])CCN(CC(=O)[O-])CCN(CC(=O)[O-])CC1.[Gd+3].[Gd+3].[Gd+3].[Gd+3] [Example 1]
numeric.value: 9.1

compound: O=C([O-])CN1CCN(CC(=O)[O-])CCN(CC(=O)N(CC(=O)NCC(CNC(=O)CN(C(=O)CN2CCN(CC(=O)[O-])CCN(CC(=O)[O-])CCN(CC(=O)[O-])CC2)C2CCCC2)(CNC(=O)CN(C(=O)CN2CCN(CC(=O)[O-])CCN(CC(=O)[O-])CCN(CC(=O)[O-])CC2)C2CCCC2)CNC(=O)CN(C(=O)CN2CCN(CC(=O)[O-])CCN(CC(=O)[O-])CCN(CC(=O)[O-])CC2)C2CCCC2)C2CCCC2)CCN(CC(=O)[O-])CC1.[Gd+3].[Gd+3].[Gd+3].[Gd+3] [Example 8]
numeric.value: 10.7

compound: COCCN(CC(=O)NCC(CNC(=O)CN(CCOC)C(=O)CN1CCN(CC(=O)[O-])CCN(CC(=O)[O-])CCN(CC(=O)[O-])CC1)(CNC(=O)CN(CCOC)C(=O)CN1CCN(CC(=O)[O-])CCN(CC(=O)[O-])CCN(CC(=O)[O-])CC1)CNC(=O)CN(CCOC)C(=O)CN1CCN(CC(=O)[O-])CCN(CC(=O)[O-])CCN(CC(=O)[O-])CC1)C(=O)CN1CCN(CC(=O)[O-])CCN(CC(=O)[O-])CCN(CC(=O)[O-])CC1.[Gd+3].[Gd+3].[Gd+3].[Gd+3] [Example 3]
numeric.value: 9.5

compound: O=C([O-])CN1CCN(CC(=O)[O-])CCN(CC(=O)N(CC(=O)NCC(CNC(=O)CN(C(=O)CN2CCN(CC(=O)[O-])CCN(CC(=O)[O-])CCN(CC(=O)[O-])CC2)C2CC2)(CNC(=O)CN(C(=O)CN2CCN(CC(=O)[O-])CCN(CC(=O)[O-])CCN(CC(=O)[O-])CC2)C2CC2)CNC(=O)CN(C(=O)CN2CCN(CC(=O)[O-])CCN(CC(=O)[O-])CCN(CC(=O)[O-])CC2)C2CC2)C2CC2)CCN(CC(=O)[O-])CC1.[Gd+3].[Gd+3].[Gd+3].[Gd+3] [Example 7]
numeric.value: 9.7

compound: CC(C)N(CC(=O)NCC(CNC(=O)CN(C(=O)CN1CCN(CC(=O)[O-])CCN(CC(=O)[O-])CCN(CC(=O)[O-])CC1)C(C)C)(CNC(=O)CN(C(=O)CN1CCN(CC(=O)[O-])CCN(CC(=O)[O-])CCN(CC(=O)[O-])CC1)C(C)C)CNC(=O)CN(C(=O)CN1CCN(CC(=O)[O-])CCN(CC(=O)[O-])CCN(CC(=O)[O-])CC1)C(C)C)C(=O)CN1CCN(CC(=O)[O-])CCN(CC(=O)[O-])CCN(CC(=O)[O-])CC1.[Gd+3].[Gd+3].[Gd+3].[Gd+3] [Example 5]
numeric.value: 10.2
